Test system: Proteus morganii
Assay: in vitro antibacterial activity, agar dilution
Assay type: cell-based
Settings: Morganella morganii; strain PR15; read-out: Minimum Inhibitory Concentration
Threshold 60 mg/L: MIC strictly smaller gives 1.0, otherwise 0.0.

Would you kindly verify if MIC of CO[C@@]1(NC(=O)Cc2cccs2)C(=O)N2C(C(=O)O)=C(CSc3nnnn3Cc3nnn[nH]3)CS[C@@H]21 is strictly less than 60 mg/L?
0.0

Would you kindly verify if MIC of CCN1CCN(C(=O)N[C@@H](C(=O)N[C@@H]2C(=O)N3C(C(=O)O)=C(CSc4nnnn4Cc4nnn[nH]4)CS[C@H]23)c2ccc(O)cc2)C(=O)C1=O is strictly less than 60 mg/L?
1.0

Would you kindly verify if MIC of CO/N=C(\C(=O)N[C@@H]1C(=O)N2C(C(=O)O)=C(CSc3nnnn3Cc3nnn[nH]3)CS[C@H]12)c1csc(N)n1 is strictly less than 60 mg/L?
1.0

Would you kindly verify if MIC of CO/N=C(\C(=O)N[C@@H]1C(=O)N2C(C(=O)O)=C(CSc3nnn(Cc4nnn[nH]4)n3)CS[C@H]12)c1csc(N)n1 is strictly less than 60 mg/L?
1.0

Would you kindly verify if MIC of O=CO[C@@H](C(=O)N[C@@H]1C(=O)N2C(C(=O)O)=C(CSc3nnnn3Cc3nnn[nH]3)CS[C@H]12)c1ccccc1 is strictly less than 60 mg/L?
1.0

Would you kindly verify if MIC of Cn1nnnc1Cn1nnnc1SCC1=C(C(=O)O)N2C(=O)[C@@H](NC(=O)Cc3cccs3)[C@H]2SC1 is strictly less than 60 mg/L?
0.0
